# SYSTEM_TESTED: Histone deacetylase 1 (Homo sapiens)
# Sequence (Q13547 whole entry): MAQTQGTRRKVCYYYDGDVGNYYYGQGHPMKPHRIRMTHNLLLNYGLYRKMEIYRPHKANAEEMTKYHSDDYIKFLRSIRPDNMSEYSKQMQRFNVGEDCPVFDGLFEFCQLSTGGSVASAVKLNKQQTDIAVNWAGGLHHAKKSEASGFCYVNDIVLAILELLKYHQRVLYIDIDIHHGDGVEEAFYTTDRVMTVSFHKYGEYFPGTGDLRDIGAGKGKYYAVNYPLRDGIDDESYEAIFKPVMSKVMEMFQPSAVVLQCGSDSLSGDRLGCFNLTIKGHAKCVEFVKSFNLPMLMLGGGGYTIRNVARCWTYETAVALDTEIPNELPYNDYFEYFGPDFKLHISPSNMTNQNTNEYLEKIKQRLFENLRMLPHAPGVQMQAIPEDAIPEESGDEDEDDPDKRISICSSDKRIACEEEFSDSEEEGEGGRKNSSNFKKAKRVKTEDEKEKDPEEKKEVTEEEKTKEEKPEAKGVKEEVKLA
# ASSAY_NOTES: Inhibition of HDAC activity measured by HDAC Fluorescent Activity Assay (mean of two experiments)
RECORDED_ENDPOINT: IC50 (nM)
Numbers only, in nM.

// worked examples, IC50 included
STRUCTURE_NOTATION	SYSTEM_TESTED	UNIT_OF_MEASUREMENT	VAL
O=C(NO)c1ccc(-c2ccc(CNCCOc3ccccc3)cn2)s1	Histone deacetylase 1 (Homo sapiens)	nM	11
O=C(NO)c1ccc(-c2ccc(CNCCc3ccccc3F)cn2)s1	Histone deacetylase 1 (Homo sapiens)	nM	12
O=C(NO)c1ccc(-c2ccc(CNCc3ccc(Cl)cc3)cn2)s1	Histone deacetylase 1 (Homo sapiens)	nM	9

Would you mind giving IC50 for every compound in the list below?
1. O=C(NO)c1ccc(-c2ccc(CNCc3ccc4c(c3)OCO4)cn2)s1
2. O=C(NO)c1ccc(-c2ccc(CNCc3ccccc3Cl)cn2)s1
3. O=C(NO)c1ccc(-c2ccc(CNCCc3cccc4occc34)cn2)s1

1: 8; 2: 7; 3: 4

Would you mind giving IC50 for every compound in the list below?
1. O=C(NO)c1ccc(-c2ccccn2)s1
2. O=C(NO)c1ccc(-c2ccc(CNCCc3c[nH]c4ccccc34)cn2)s1
3. O=C(NO)c1ccc(-c2ccccc2)s1
4. O=C(NO)c1ccc(-c2ccc(CN3CCc4ccccc4C3)cn2)s1
5. O=C(NO)c1ccc(-c2ccc(CCNCc3ccccc3)cn2)s1

[243, 8, 900, 30, 9]

###

Please go through the items and note down their inhibition at 1 µM.
# SYSTEM_TESTED: CYP2D6 (Homo sapiens)
# Sequence (P10635 whole entry): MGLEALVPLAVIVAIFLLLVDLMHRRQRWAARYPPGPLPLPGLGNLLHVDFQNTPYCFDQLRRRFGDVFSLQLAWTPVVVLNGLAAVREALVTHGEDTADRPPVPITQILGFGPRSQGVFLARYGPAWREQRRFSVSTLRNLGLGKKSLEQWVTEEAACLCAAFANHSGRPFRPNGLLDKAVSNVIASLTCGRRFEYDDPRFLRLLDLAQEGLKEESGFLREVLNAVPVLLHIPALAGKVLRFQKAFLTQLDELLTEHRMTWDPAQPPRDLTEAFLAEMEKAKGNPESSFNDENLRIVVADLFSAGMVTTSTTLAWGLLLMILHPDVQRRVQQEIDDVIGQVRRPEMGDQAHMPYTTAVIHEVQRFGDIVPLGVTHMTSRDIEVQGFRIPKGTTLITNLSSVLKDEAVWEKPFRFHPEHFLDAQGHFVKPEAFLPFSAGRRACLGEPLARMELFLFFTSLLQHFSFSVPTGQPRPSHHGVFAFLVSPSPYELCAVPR
# ASSAY_NOTES: Percent inhibition of CYP450 2D6 at 1uM concentration
# Type: ADME
Returns: string containing the numeric result and its unit.

Would you mind giving inhibition at 1 µM for every compound in the list below?
1. O=C(NO)c1ccc(-c2ccn(CCNCc3ccc4c(c3)OCO4)n2)s1
2. O=C(CCCCCCC(=O)Nc1ccccc1)NO
3. O=C(NO)c1ccc(-c2ccc(CNCc3ccccc3)cn2)s1

1. 8%
2. 8%
3. 1%

###

# Tested on: MCF7
# ASSAY_NOTES: Inhibition of MCF7 cell proliferation (mean of two experiments)
# Type: functional, cell-based
# PARTICULARS: Homo sapiens
Satisfied if IC50 is below 100 nM. Not satisfied if not; exact matches included in Not satisfied.

STRUCTURE_NOTATION	QUALITATIVE_LABEL
O=C(NO)c1ccc(-c2ccc(CNCCc3ccc(F)cc3)cn2)s1	Satisfied

Lab note: IC50 threshold 100 nM. Does this compound come in strictly under it? O=C(NO)c1ccc(-c2ccc(CNCc3ccccc3Cl)cn2)s1
Not satisfied

Lab note: IC50 threshold 100 nM. Does this compound come in strictly under it? O=C(NO)c1ccc(-c2ccc(CNCCc3cccc4occc34)cn2)s1
Satisfied

Lab note: IC50 threshold 100 nM. Does this compound come in strictly under it? O=C(NO)c1ccc(-c2ccc(CNCCc3c[nH]c4ccccc34)cn2)s1
Not satisfied

Lab note: IC50 threshold 100 nM. Does this compound come in strictly under it? O=C(NO)c1ccc(-c2cccs2)s1
Not satisfied

Lab note: IC50 threshold 100 nM. Does this compound come in strictly under it? O=C(NO)c1ccc(-c2ccc(NCCc3ccccc3)cn2)s1
Not satisfied

Lab note: IC50 threshold 100 nM. Does this compound come in strictly under it? O=C(NO)c1ccc(-c2ccc(CNCCCc3ccccc3)cn2)s1
Not satisfied

Lab note: IC50 threshold 100 nM. Does this compound come in strictly under it? O=C(NO)c1ccc(-c2ccc(CNc3ccccc3)cn2)s1
Not satisfied

Lab note: IC50 threshold 100 nM. Does this compound come in strictly under it? CN(Cc1ccccc1)Cc1ccc(-c2ccc(C(=O)NO)s2)nc1
Not satisfied

Lab note: IC50 threshold 100 nM. Does this compound come in strictly under it? O=C(NO)c1ccc(-c2ccc(CNCCc3ccccc3Cl)cn2)s1
Satisfied

Lab note: IC50 threshold 100 nM. Does this compound come in strictly under it? O=C(NO)c1ccc(-c2ccc(CNCc3ccc4c(c3)OCCO4)cn2)s1
Satisfied
